Provenance of the data: patent US20230012273A1

# System under test: T1, human SIRPαV2 extracellular domain + His-tag (CAA71403.1) (human, UniProt P78324 31-373)
# T1 construct: also called hSIRPαV2; HuSIRPαV2
# T1 sequence (P78324 other isoform, or with tags, fused parts or gaps): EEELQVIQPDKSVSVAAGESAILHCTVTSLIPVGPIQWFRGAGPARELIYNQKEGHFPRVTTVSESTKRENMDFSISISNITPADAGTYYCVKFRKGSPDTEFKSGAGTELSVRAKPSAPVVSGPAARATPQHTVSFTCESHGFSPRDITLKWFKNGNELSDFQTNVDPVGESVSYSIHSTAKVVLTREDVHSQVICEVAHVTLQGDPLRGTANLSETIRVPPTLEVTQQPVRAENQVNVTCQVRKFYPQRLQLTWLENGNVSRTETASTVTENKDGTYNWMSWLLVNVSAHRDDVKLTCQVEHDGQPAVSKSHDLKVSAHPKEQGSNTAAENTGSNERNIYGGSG
# Protocol text: SPR, Ab captured, ECD-His analyte
pKd: −log10 of the molar value.
Recorded pKd for the following binders
Property label: pKd

Antibody E19 (antibody, human IgG1, kappa, L234A L235A, V domains shown) VH: QVQLQESGPGLVRPSETLSLTCTVSGGSIRNYYWSWIRQPPGKGLEWIGFIYYTGRTFYNPSLKSRVTISLDMSKNQFSLKMTSVTAADTAVYYCARVRAYSGIGLDGTDVWGQGTTVTVSS VL: DIVMTQSPLSLPVTPGEPASISCKSSQSLLYSNGYAYLDWYLQRPGQSPQLLIYQGSNRASGVPDRFSGSGSGTDFTLKISRVEAEDVGVFYCMQALQTPLTFGGGTKVEIKR = 9.01
Antibody E13 (antibody, human IgG1, kappa, L234A L235A, V domains shown) VH: QVQLQESGPGLVRPSETLSLTCTVSGGSIRNYYWSWIRQPPGKGLEWIGFIYYTGRTFYNPSLKSRVTISLDMSINQFSLKMTSVTAADTAVYYCARVRAYSGIGLDGTDVWGQGTTVTVSS VL: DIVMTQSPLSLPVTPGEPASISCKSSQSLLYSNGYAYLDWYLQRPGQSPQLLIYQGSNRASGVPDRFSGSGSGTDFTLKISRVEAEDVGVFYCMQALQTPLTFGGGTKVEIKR = 9.16
Antibody E5 (antibody, human IgG1, kappa, L234A L235A, V domains shown) VH: QVQLQESGPGLVRPSETLSLTCTVSGGSIRNYYWSWIRQPPGKGLEWIGFIYYNGRTFYNPSLKSRVTISLDKSKNQFSLKMTSVTAADTAVYYCARVRAYSGIGLDGTDVWGQGTTVTVSS VL: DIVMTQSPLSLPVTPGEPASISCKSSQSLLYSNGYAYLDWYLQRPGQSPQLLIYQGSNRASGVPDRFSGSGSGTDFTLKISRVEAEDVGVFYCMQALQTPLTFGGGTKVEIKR = 9.06
